# assay-remarks: Solvency of the active substance in monomers (visual inspection)
# Format: physicochemical
# Parameters: key: Excellent: The active substance was not found to have been precipitated in the solution of active substance both immediately after the preparation and after the preservation for 7 days.; Good: The active substance was found to have been precipitated in the solution of active substance immediately after the preparation, but the active substance was not found to have been precipitated in the solution of active substance after the preservation for 7 days.; Poor: The active substance was found to have been precipitated in the solution of active substance both immediately after the preparation and after the preservation for 7 days
# condition-notes: 3 parts active substance in 100 parts 2-Ethylhexyl Methacrylate; 25° C., 7 days
measurement-label: Solvency of the active substance

COc1ccc(OC)c(C(O)CN)c1 (stereo not shown) = Poor
O=[N+]([O-])O[C@H]1CO[C@H]2[C@@H]1OC[C@H]2O[N+](=O)[O-] [ISDN, isosorbide dinitrate] = Excellent
COc1ccc2c(c1)c(CC(=O)O)c(C)n2C(=O)c1ccc(Cl)cc1 = Poor
CC(C)(C)NCC(O)c1ccccc1Cl (stereo not shown) = Excellent
